// reported %Inh per item
# System: SGK3
# details: concentration: 1 μM, replicates: in singlicate; n = 1;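 note: KINOMEscan kinase panel screen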

Past entries and their recorded results:
[
  {
    "molecule": "CCCc1ccc(S(=O)(=O)NC2CCN(c3ccnc(Nc4ccc(OC)cc4)n3)C2)cc1 (stereo not shown)",
    "%Inh": "0%"
  },
  {
    "molecule": "Cn1cc(-c2ccc3c(c2)CCN3C(=O)Cc2cccc(C(F)(F)F)c2)c2c(N)ncnc21",
    "%Inh": "21%"
  },
  {
    "molecule": "Fc1cccc(COc2ccc(Nc3ncnc4nn5ccccc5c34)cc2Cl)c1",
    "%Inh": "0%"
  },
  {
    "molecule": "CCc1nc(-c2cccc(C)c2)c(-c2ccnc(NC(=O)c3ccccc3)c2)s1",
    "%Inh": "0%"
  },
  {
    "molecule": "Nc1n[nH]c2nnc(-c3ccccc3)cc12",
    "%Inh": "19%"
  },
  {
    "molecule": "Cl.Fc1ccccc1COc1ccc(Nc2ncnc3ccc(-c4nnc(C(F)(F)F)o4)cc23)cc1Cl",
    "%Inh": "0%"
  }
]

Tell me the measured %Inh of Cl.O=S(=O)(c1cccc(F)c1)c1ccc(Nc2ncnc3cc(Br)sc23)cc1Cl , please.
6%

###

# System: PAK1
# details: concentration: 1 μM, replicates: in singlicate; n = 1
readout_label: %Inh

[
  {
    "compound_smiles": "Cc1cccc(-c2nc(Nc3ccc4[nH]nnc4c3)c3ccccc3n2)n1",
    "readout_label": "%Inh",
    "result": "9%"
  }
]

Consider the molecule shown here: OCCOCCn1ccc2ncnc(Nc3ccc(Oc4cccc(Cl)c4)c(Cl)c3)c21 What is its recorded %Inh?
0%

Follow-up entry: Nc1nc(-c2ccccn2)c(-c2ccnc3ccccc23)s1
0%

Repeat with Cl.Fc1ccccc1COc1ccc(Nc2ncnc3ccc(-c4nnc(C(F)(F)F)o4)cc23)cc1Cl
0%

Ok, now COc1ccc(NC(=O)Nc2ccc(C)c(-c3ccc(C(=O)Nc4ccncc4)cc3)c2)cc1
0%

Then Cc1ccc(NC(=O)c2cccc(C#N)c2)cc1-c1ccc(C(=O)Nc2ccncc2)cc1 ?
16%

Okay, and Cl.O=S(=O)(c1cccc(F)c1)c1ccc(Nc2ncnc3cc(Br)sc23)cc1Cl ?
1%

Further, for Oc1ccc2ncnc(Nc3ccc(OCc4ccccc4)cc3)c2c1 ?
22%

What about CC(C)(C)c1ccc(-n2cnc3c(N)ncnc32)cc1 ?
9%

###

# System: PYK2
# Construct: gene PTK2B
# details: concentration: 1 μM, replicates: in singlicate; n = 1
Decide using %Inh: a value greater than or equal to 7% is T, a smaller one is F.

Study these solved cases before continuing.
[
  {
    "compound": "COc1ccc(NC(=O)c2ccc(-c3cc(-c4nnc(C)o4)ccc3C)cc2)cc1",
    "cat": "F"
  },
  {
    "compound": "Cc1cc(N2CCC(NS(=O)(=O)c3ccc(F)cc3)CC2)nc(Nc2cccc(C#N)c2)n1.O=C(O)C(F)(F)F",
    "cat": "T"
  },
  {
    "compound": "CSc1ccc(NC2=C(c3ccccc3Cl)C(=O)NC2=O)cc1",
    "cat": "F"
  },
  {
    "compound": "Fc1ccc(-c2ncn(CCCNCc3ccccc3)c2-c2ccncc2)cc1",
    "cat": "F"
  },
  {
    "compound": "COc1ccc(NC(=O)Nc2ccc(C)c(-c3ccc(C(=O)Nc4ccncc4)cc3)c2)cc1",
    "cat": "F"
  },
  {
    "compound": "Cc1ccc(NC(=O)c2cccc(C#N)c2)cc1-c1ccc(C(=O)Nc2ccncc2)cc1",
    "cat": "F"
  },
  {
    "compound": "O=C(Nc1ccccc1F)NC1CCN(c2ccnc(Nc3ccc(F)cc3)n2)C1 (stereo not shown)",
    "cat": "F"
  },
  {
    "compound": "Clc1ccc(-c2cc(-c3c[nH]nc3-c3ccccn3)ccn2)cc1",
    "cat": "F"
  }
]

Is %Inh for Nc1nc(-c2ccc3c(N)n[nH]c3c2)cc(N2CCCCC2)n1 at or above 7%?
F

Likewise for CN1CCC(n2cnc(-c3ccc(F)cc3)c2-c2ccnc(NC3CCNCC3)n2)CC1 ?
T

Another: O=C(NCCCN1CCCC1=O)c1cnc(NCc2cc(Cl)ccc2Cl)nc1NC1CCNCC1
F

And what about the compound FC(F)(F)c1ccc(-c2cc(-c3c[nH]nc3-c3ccccn3)ccn2)cc1 ?
F

# iterate: OCCOCCn1ccc2ncnc(Nc3ccc(Oc4cccc(Cl)c4)c(Cl)c3)c21
F

Another: Nc1n[nH]c2nnc(-c3ccccc3)cc12
F

And Cc1ccc(O)cc1Nc1cc(C(F)(F)F)nc2ccc(-c3ccncc3)cc12 ?
T

Query Cn1cc(-c2ccc3c(c2)CCN3C(=O)Cc2cccc(C(F)(F)F)c2)c2c(N)ncnc21 next
F

Would you mind doing COC(=O)c1c(-c2ccccc2)c2cc(Cl)ccc2c(=O)n1Cc1ccc(S(C)(=O)=O)cc1 as well?
F

# iterate: CCc1nc(-c2cccc(C)c2)c(-c2ccnc(NC(=O)c3ccccc3)c2)s1
T

Another: Cn1ccc2ncnc(Oc3ccc(NC(=O)Nc4cccnc4)c(Cl)c3)c21
T

Same question for CCn1c(-c2ccncc2)nc2cnccc21 please.
F

Queued: CNc1nccc(-c2c(-c3ccc(F)cc3)ncn2C2CCN(C)CC2)n1
F

Then this compound: CC(C)N1CCC(n2cnc(-c3ccc(F)cc3)c2-c2ccnc(N)n2)CC1
T

Next: CC(C)(C)OC(=O)NC1CCCN(c2cc(-c3ccc4c(N)n[nH]c4c3)nc(N)n2)C1 (stereo not shown)
F

###

# Test system: AURKA
# details: concentration: 1 μM, replicates: in singlicate; n = 1
readout_label: %Inh (%)
Write the answer as a number in %, unit excluded.

[
  {
    "compound_smiles": "FC(F)(F)c1ccc(-c2cc(-c3c[nH]nc3-c3ccccn3)ccn2)cc1",
    "readout_label": "%Inh",
    "number": 18
  },
  {
    "compound_smiles": "COC(=O)c1c(-c2ccccc2)c2cc(Cl)ccc2c(=O)n1Cc1ccc(S(C)(=O)=O)cc1",
    "readout_label": "%Inh",
    "number": 4
  },
  {
    "compound_smiles": "Nc1nc(-c2ccc3c(N)n[nH]c3c2)cc(N2CCCCC2)n1",
    "readout_label": "%Inh",
    "number": 0
  }
]

Shift focus to the following entry.
May I ask what %Inh has been recorded for O=C(CCO)NCCn1ccc2ncnc(Nc3ccc(Oc4cccc(C(F)(F)F)c4)c(Cl)c3)c21 ?
0

###

# Test system: DYRK2
# details: concentration: 1 μM, replicates: in singlicate; n = 1
readout_label: %Inh (%)
Number in %, nothing else.

As a guide, the following entries are already answered.
[
  {
    "compound": "CN1CCC(n2cnc(-c3ccc(F)cc3)c2-c2ccnc(NC3CCNCC3)n2)CC1 [SB-229482]",
    "readout_label": "%Inh",
    "number": 6
  },
  {
    "compound": "COc1ccc(-c2nc3n(c2-c2ccncc2)CCC3)cc1 [SKF-104493]",
    "readout_label": "%Inh",
    "number": 0
  },
  {
    "compound": "CCc1nc(-c2cccc(C)c2)c(-c2ccnc(NC(=O)c3ccccc3)c2)s1",
    "readout_label": "%Inh",
    "number": 10
  }
]

Now examine the next entry.
Which %Inh is listed for FC(F)(F)c1cc(Nc2nccc(-c3c(-c4ccc(Cl)cc4)nn4ncccc34)n2)ccc1Cl [GW829351] ?
0

###

Reported %Inh values for the following compounds.
# Tested on: BIKE
# Construct: gene BMP2K
# details: concentration: 1 μM, replicates: in singlicate; n = 1
Respond with the bare value in %.

# lookup: %Inh of O=C(NCCCN1CCCC1=O)c1cnc(NCc2cc(Cl)ccc2Cl)nc1NC1CCNCC1
4

Follow-up entry: CC(C)(C)OC(=O)NC1CCCN(c2cc(-c3ccc4c(N)n[nH]c4c3)nc(N)n2)C1 (stereo not shown)
10

Could you do the same for Cl.O=S(=O)(c1cccc(F)c1)c1ccc(Nc2ncnc3cc(Br)sc23)cc1Cl , please?
0

How about this compound: Nc1nc(-c2cccnc2)c(-c2ccnc3ccccc23)s1
34

###

# Test system: p38-gamma
# Construct: gene MAPK12
# details: concentration: 1 μM, replicates: in singlicate; n = 1
The label is TRUE for %Inh below 5% and FALSE for %Inh equal to or exceeding 5%.

For this molecule, is %Inh lower than 5%? Cl.Fc1ccccc1COc1ccc(Nc2ncnc3ccc(-c4nnc(C(F)(F)F)o4)cc23)cc1Cl [GW424170]
FALSE

Okay, and NC(=O)c1sc(-n2cnc3ccccc32)cc1OCc1ccccc1F [GSK1024306] ?
TRUE

And what about the molecule O=C(NCCCN1CCCC1=O)c1cnc(NCc2cc(Cl)ccc2Cl)nc1NC1CCNCC1 ?
FALSE

Let us now turn to Fc1cccc(COc2ccc(Nc3ncnc4sc(-c5ccc[nH]5)cc34)cc2Cl)c1 [GW707818]
FALSE

Subsequent entry: COC(=O)c1cccc(NC(=O)NCCNc2ccnc(Nc3ccc(F)cc3)n2)c1 [GSK1379883]
TRUE

Now consider Cc1cc(N2CCC(NS(=O)(=O)c3ccc(F)cc3)CC2)nc(Nc2cccc(C#N)c2)n1.O=C(O)C(F)(F)F [GSK1653537] .
TRUE

Next record, please: Nc1nc(-c2ccccn2)c(-c2ccnc3ccccc23)s1 [GW548057]
TRUE
